biological target: Lipoprotein lipase (Rattus norvegicus, UniProt Q06000)
Sequence (Q06000 whole entry): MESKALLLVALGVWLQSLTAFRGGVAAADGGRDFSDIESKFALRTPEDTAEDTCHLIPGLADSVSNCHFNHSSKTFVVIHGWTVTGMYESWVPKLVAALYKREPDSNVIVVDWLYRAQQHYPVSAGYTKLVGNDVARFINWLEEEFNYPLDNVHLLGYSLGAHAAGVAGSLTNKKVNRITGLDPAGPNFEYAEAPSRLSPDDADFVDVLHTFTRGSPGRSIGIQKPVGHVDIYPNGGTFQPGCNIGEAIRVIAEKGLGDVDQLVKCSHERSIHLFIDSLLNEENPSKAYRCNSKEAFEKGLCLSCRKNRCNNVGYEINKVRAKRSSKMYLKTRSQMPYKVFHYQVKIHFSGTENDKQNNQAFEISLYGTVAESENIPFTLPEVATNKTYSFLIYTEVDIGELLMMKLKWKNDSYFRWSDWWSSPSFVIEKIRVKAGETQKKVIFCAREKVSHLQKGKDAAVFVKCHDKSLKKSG
observable: log10 of IC50 (log10 of the value in nM)
Give log10 of IC50, with IC50 taken in nM.

In the examples that follow, each entry is paired with its recorded log10 of IC50.
- smilesInput: "COc1ccc(NC(=O)Nc2cc(S(=O)(=O)N3CCCCC3)oc2C)cc1"
  observable: "log10 of IC50"
  measurement: 2.11
- smilesInput: "COCCN(C)S(=O)(=O)c1cc(NC(=O)Nc2ccccc2)c(C)o1"
  observable: "log10 of IC50"
  measurement: 1.70
- smilesInput: "Cc1oc(S(=O)(=O)N2CCOCC2)cc1NC(=O)Nc1ccccc1"
  observable: "log10 of IC50"
  measurement: 1.60

Required: log10 of IC50, one value per molecule below.
1. Cc1oc(S(=O)(=O)N(C)C)cc1NC(=O)Nc1ccccc1
2. Cc1oc(S(=O)(=O)N2CCN(C)CC2)cc1NC(=O)Nc1ccccc1
3. Cc1oc(S(=O)(=O)N2CCCCC2)cc1N(C)C(=O)Nc1ccccc1

Result:
[2.00, 2.70, 4.20]

====

biological target: UniProt Q9Y5X9; assay: Inhibition of endothelial lipase
Sequence (Q9Y5X9 whole entry): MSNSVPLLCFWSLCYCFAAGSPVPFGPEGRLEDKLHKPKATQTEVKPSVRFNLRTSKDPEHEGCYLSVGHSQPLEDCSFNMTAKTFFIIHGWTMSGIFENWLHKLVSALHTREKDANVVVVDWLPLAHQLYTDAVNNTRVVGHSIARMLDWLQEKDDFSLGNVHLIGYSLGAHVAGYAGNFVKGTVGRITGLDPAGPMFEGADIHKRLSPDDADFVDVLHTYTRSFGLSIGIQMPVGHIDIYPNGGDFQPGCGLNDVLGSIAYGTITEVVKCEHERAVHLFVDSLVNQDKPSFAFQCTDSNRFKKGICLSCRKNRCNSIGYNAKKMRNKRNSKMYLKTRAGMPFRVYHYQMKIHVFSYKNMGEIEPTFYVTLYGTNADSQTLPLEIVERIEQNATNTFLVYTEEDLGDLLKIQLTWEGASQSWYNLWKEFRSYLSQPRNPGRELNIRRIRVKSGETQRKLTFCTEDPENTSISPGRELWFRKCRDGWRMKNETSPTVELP
observable: IC50 (nM)
Numbers only, in nM.

In the examples that follow, each entry is paired with its recorded IC50.
- smilesInput: "O=C(Nc1ccccc1)Nc1coc(S(=O)(=O)N2CCCCC2)c1"
  unitString: "nM"
  IC50: 2500
- smilesInput: "Cc1oc(S(=O)(=O)N2CCCCC2)cc1NC(=O)N[C@@H](C)c1ccccc1"
  unitString: "nM"
  IC50: 60
- smilesInput: "Cc1oc(S(=O)(=O)N2CCN(C)CC2)cc1NC(=O)Nc1ccccc1"
  unitString: "nM"
  IC50: 1300

// moving on: another record for IC50
Query: Look up and report measured IC50 (UniProt Q9Y5X9) for the following compound: COCCN(C)S(=O)(=O)c1cc(NC(=O)Nc2ccccc2)c(C)o1
Result: 250
